- tested on: N132Q ZZ fragment p62 (122-175) (Homo sapiens)
- Sequence (chain, as listed by the source N132Q): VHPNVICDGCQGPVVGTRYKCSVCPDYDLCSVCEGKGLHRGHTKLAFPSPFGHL
- experiment summary: ITC
Ends that are not written are not given here.
Below: a set of entries, each annotated with reported Kd.
measured metric: Kd (µM)

{"columns": ["binder", "readout unit", "measured result"],
 "data": [
  ["RIFS (also: two Zn2+ ions bound) [RIFS tetrapeptide (Nt-Arg)]", "µM", 21.4],
  ["YIFS (also: two Zn2+ ions bound) [YIFS tetrapeptide (Nt-Tyr)]", "µM", 143]
]}
